Assay: physchem
Details: aqueous buffer
VALUE_KIND: solubility

# MOLECULE, VALUE_KIND, ASSAY_RESULT
records = [
    ("OC[C@@H]1[C@@H](O)[C@H](O)[C@@H](O)CN1CCCCCCCCC1CCCO1 (stereo partly shown)", "solubility", "> 100 mg/mL"),
]

----------
Experiment: Mouse pharmacokinetics
Type: in vivo, Swiss Albino mice
Conditions: male, Swiss Albino, in vivo, iv, 10 mg/kg

# COMPOUND, UNIT_SPEC, Cmax
records = [
    ("OC[C@@H]1[C@@H](O)[C@H](O)[C@@H](O)CN1CCCCCCCCC1CCCO1 (stereo partly shown)", "µg/mL", 8.88),
]

----------
Assay: Mouse pharmacokinetics
Format: in vivo, Swiss Albino mice
Conditions: male, Swiss Albino, in vivo, po, 100 mg/kg

# COMPOUND, AUC(0-t) [ng·h/mL]
rows = [
    ("OC[C@@H]1[C@@H](O)[C@H](O)[C@@H](O)CN1CCCCCCCCC1CCCO1 (stereo partly shown) [UV-12]", 43100),
]

----------
Experiment: Mouse pharmacokinetics
Format: in vivo, Swiss Albino mice
Conditions: male, Swiss Albino, in vivo, iv, 10 mg/kg

# COMPOUND, Vd [L/kg]
measured = [
    ("OC[C@@H]1[C@@H](O)[C@H](O)[C@@H](O)CN1CCCCCCCCC1CCCO1 (stereo partly shown) [UV-12]", 1.98),
]

----------
Assay: Guinea pig pharmacokinetics
Assay type: in vivo, Hartley guinea pigs
Conditions: female, Hartley, in vivo, im, 100 mg/kg

# COMPOUND, AUC(0-inf) [ng·h/mL]
records = [
    ("OC[C@@H]1[C@@H](O)[C@H](O)[C@@H](O)CN1CCCCCCCCC1CCCO1 (stereo partly shown) [UV-12]", 19200),
]

----------
Assay: Mouse pharmacokinetics
Assay type: in vivo, Swiss Albino mice
Settings: male, Swiss Albino, in vivo, po, 100 mg/kg

# COMPOUND, Cmax / ng/mL
rows = [
    ("OC[C@@H]1[C@@H](O)[C@H](O)[C@@H](O)CN1CCCCCCCCC1CCCO1 (stereo partly shown)", 12600),
]

----------
Experiment: Mouse pharmacokinetics
Type: in vivo, Swiss Albino mice
Conditions: male, Swiss Albino, plasma, mice, IV 10 mg/kg

# MOLECULE, half-life, h
records = [
    ("OC[C@@H]1[C@@H](O)[C@H](O)[C@@H](O)CN1CCCCCCCCC1CCCO1 (stereo partly shown)", 1.92),
]

----------
Test: in vitro
Type: in vitro ADME
Conditions: human, microsomes
VALUE_KIND: half-life at 0.5 µM

# COMPOUND, ASSAY_RESULT
rows = [
    ("OC[C@@H]1[C@@H](O)[C@H](O)[C@@H](O)CN1CCCCCCCCC1CCCO1 (stereo partly shown)", "> 30 min"),
]

----------
Test: Guinea pig pharmacokinetics
Assay type: in vivo, Hartley guinea pigs
Settings: female, Hartley, in vivo, sc, 100 mg/kg

# COMPOUND, UNIT_SPEC, Tmax
rows = [
    ("OC[C@@H]1[C@@H](O)[C@H](O)[C@@H](O)CN1CCCCCCCCC1CCCO1 (stereo partly shown)", "min", 30),
]

----------
Assay: Guinea pig pharmacokinetics
Format: in vivo, Hartley guinea pigs
Conditions: female, Hartley, in vivo, im, 100 mg/kg

# COMPOUND, bioavailability, %
records = [
    ("OC[C@@H]1[C@@H](O)[C@H](O)[C@@H](O)CN1CCCCCCCCC1CCCO1 (stereo partly shown)", 109),
]
